- target-of-assay: sGC in the CHO reporter cell (Rattus norvegicus (Rat), UniProt P20595)
- Sequence (P20595 whole entry): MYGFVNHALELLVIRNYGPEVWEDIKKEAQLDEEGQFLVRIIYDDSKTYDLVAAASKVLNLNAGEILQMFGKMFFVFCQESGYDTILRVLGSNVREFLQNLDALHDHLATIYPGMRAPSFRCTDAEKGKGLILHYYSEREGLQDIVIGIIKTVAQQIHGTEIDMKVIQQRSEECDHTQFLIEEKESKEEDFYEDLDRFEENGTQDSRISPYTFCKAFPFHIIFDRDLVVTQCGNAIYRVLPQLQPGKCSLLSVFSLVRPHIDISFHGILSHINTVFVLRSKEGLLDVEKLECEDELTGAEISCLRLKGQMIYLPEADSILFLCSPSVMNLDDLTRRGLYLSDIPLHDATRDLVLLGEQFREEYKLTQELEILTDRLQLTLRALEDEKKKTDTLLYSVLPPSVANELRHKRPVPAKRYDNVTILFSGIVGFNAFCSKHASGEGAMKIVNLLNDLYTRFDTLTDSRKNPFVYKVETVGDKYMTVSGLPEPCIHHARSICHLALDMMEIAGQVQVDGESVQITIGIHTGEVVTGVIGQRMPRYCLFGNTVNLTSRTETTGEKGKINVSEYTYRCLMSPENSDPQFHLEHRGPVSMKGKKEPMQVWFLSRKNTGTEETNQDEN
- Sequence (P19686 whole entry partner): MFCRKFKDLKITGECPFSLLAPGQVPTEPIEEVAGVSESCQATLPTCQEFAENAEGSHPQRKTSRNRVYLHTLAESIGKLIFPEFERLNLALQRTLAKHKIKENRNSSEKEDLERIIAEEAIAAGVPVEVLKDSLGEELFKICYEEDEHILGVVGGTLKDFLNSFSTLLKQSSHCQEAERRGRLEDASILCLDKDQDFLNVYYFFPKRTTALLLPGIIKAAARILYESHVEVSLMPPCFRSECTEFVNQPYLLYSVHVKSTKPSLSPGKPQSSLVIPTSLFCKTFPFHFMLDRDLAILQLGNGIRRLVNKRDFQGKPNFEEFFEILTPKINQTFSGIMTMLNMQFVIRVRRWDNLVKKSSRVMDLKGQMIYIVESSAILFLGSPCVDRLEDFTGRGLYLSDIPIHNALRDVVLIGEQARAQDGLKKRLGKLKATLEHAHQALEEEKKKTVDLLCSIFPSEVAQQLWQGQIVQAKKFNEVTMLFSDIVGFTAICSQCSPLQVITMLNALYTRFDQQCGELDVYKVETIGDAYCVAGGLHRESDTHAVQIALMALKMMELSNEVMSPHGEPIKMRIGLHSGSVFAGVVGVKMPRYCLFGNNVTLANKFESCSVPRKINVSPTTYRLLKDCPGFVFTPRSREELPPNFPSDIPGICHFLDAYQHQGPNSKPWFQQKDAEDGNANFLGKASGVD
- assay-info: Action at a recombinant guanylate cyclase reporter cell line
- Format: cell-based
- measurement-conditions: CHO reporter cell in vitro
# label = yes if MEC (minimum effective concentration), sGC-activating activity in the CHO reporter cell >= 6 nM else no

Examples from the recorded data:
C[C@H]([C@H](C(=O)Nc1cc(C(CC(=O)O)C2(C)CC2)ccc1Cl)c1ccc(Cl)cc1)C(F)(F)F (single isomer, unassigned)	yes
COC(C)(C)C(CC(=O)O)c1ccc(Cl)c(NC(=O)[C@H](c2ccc(Cl)cc2)[C@@H](C)C(F)(F)F)c1 (stereo partly drawn)	yes
C[C@H](C(C(=O)Nc1cc(C(CC(=O)O)C2CC2(F)F)ccc1Cl)c1ccc(Cl)cc1)C(F)(F)F (stereo partly drawn) [Example 32]	no

Request: Kindly determine if MEC (minimum effective concentration), sGC-activating activity in the CHO reporter cell recorded for C[C@H]([C@H](C(=O)Nc1cc(C(CC(=O)O)C2CC(F)(F)C2)ccc1Cl)c1ccc(Cl)cc1)C(F)(F)F (stereo partly drawn) is above or exactly 6 nM.
Response: yes

Request: Check this compound for MEC (minimum effective concentration), sGC-activating activity in the CHO reporter cell at or above 6 nM: C[C@H]([C@H](C(=O)Nc1cc(C(CC(=O)O)CC2CC2)ccc1Cl)c1ccc(Cl)cc1)C(F)(F)F (single isomer, unassigned) [Example 35]
Response: no

Request: Could you tell me if the measured MEC (minimum effective concentration), sGC-activating activity in the CHO reporter cell of CC(C)C(CC(=O)O)c1ccc(Cl)c(NC(=O)[C@H](c2ccc(Cl)cc2)[C@@H](C)C(F)(F)F)c1 (single isomer, unassigned; (+)) [Example 2] reaches 6 nM or more?
Response: yes

###

Hi there, I'd appreciate the recorded MEC (minimum effective concentration), sGC-activating activity in the CHO reporter cell for every entry that follows.
- target-of-assay: sGC in the CHO reporter cell (Rattus norvegicus (Rat))
- assay-info: Action at a recombinant guanylate cyclase reporter cell line
- Assay type: cell-based
- measurement-conditions: CHO reporter cell in vitro
One number for each entry, in nM.

For orientation, consider the following solved cases.
CC(C)C(CC(=O)O)c1ccc(Cl)c(NC(=O)[C@H](c2ccc(C3CC3(F)F)cc2)[C@@H](C)C(F)(F)F)c1 (stereo partly shown) [Example 13]	0.3
CC(C)C(C)(CC(=O)O)c1ccc(Cl)c(NC(=O)[C@H](c2ccc(Cl)cc2)[C@@H](C)C(F)(F)F)c1 (single isomer, unassigned) [Example 4]	3
C[C@H]([C@H](C(=O)Nc1cc(C(CC(=O)O)C2CC2)ccc1Cl)c1ccc(Cl)cc1)C(F)(F)F (stereo partly shown) [Example 23]	3
C[C@H]([C@H](C(=O)Nc1cc(C(C)(CC(=O)O)C2CC2)ccc1Cl)c1ccc(Cl)cc1)C(F)(F)F (stereo partly shown) [Example 7]	300
C[C@H]([C@H](C(=O)Nc1cc(C(CC(=O)O)C2CC2)ccc1Cl)c1ccc(Cl)cc1)C(F)(F)F (single isomer, unassigned; (+)) [Example 22]	1.8

// input: 6 compounds below; output: MEC (minimum effective concentration), sGC-activating activity in the CHO reporter cell for each
1. C[C@H]([C@H](C(=O)Nc1cc(C(CC(=O)O)C2(F)CC2)ccc1Cl)c1ccc(Cl)cc1)C(F)(F)F (stereo partly shown) [Example 27]
2. CC(C)C(C)(CC(=O)O)c1ccc(Cl)c(NC(=O)[C@H](c2ccc(Cl)cc2)[C@@H](C)C(F)(F)F)c1 (single isomer, unassigned) [Example 3]
3. CC(C)C(CC(=O)O)c1ccc(Cl)c(NC(=O)[C@H](c2ccc(F)cc2)[C@@H](C)C(F)(F)F)c1 (stereo partly shown) [Example 11]
4. Cc1cc([C@@H](C(=O)Nc2cc(C(CC(=O)O)C(C)C)ccc2Cl)[C@@H](C)C(F)(F)F)ccc1Cl (stereo partly shown) [Example 17]
5. C[C@H]([C@H](C(=O)Nc1cc(C(CC(=O)O)C2CCC2)ccc1Cl)c1ccc(Cl)cc1)C(F)(F)F (single isomer, unassigned; (+)) [Example 34]
6. CC(C)C(CC(=O)O)c1ccc(Cl)c(NC(=O)C(c2ccc(Cl)cc2)C2CCC(F)(F)C2)c1 (stereo not shown) [Example 20]

Response:
1: 3; 2: 0.3; 3: 3; 4: 1; 5: 10; 6: 1000
